Values were extracted from ChEMBL document CHEMBL1914294.

The following compounds are shown together with reported MIC values.
# Tested on: Staphylococcus aureus
# Assay method text: Antibacterial activity against multidrug-resistant Staphylococcus aureus 3SP/R33 after 18 hrs
# Assay type: functional
# Study conditions: 3SP/R33, 18 h

{"columns": ["Compound", "Subject of test", "MIC (µg/mL)"],
 "data": [
  ["CCCCOc1ccc(C2=NN(C(C)=O)C(c3ccc([N+](=O)[O-])s3)O2)cc1 (stereo not given)", "Staphylococcus aureus", 1.25],
  ["CC(=O)N1N=C(c2ccc(C#N)cc2)OC1c1ccc([N+](=O)[O-])s1 (stereo not given)", "Staphylococcus aureus", 1.25],
  ["CC(=O)N1N=C(c2ccc(Br)cc2)OC1c1ccc([N+](=O)[O-])s1 (stereo not given)", "Staphylococcus aureus", 1.25],
  ["CCCc1ccc(C2=NN(C(C)=O)C(c3ccc([N+](=O)[O-])s3)O2)cc1 (stereo not given)", "Staphylococcus aureus", 1.25],
  ["CCCOc1ccc(C2=NN(C(C)=O)C(c3ccc([N+](=O)[O-])s3)O2)cc1 (stereo not given)", "Staphylococcus aureus", 2.5],
  ["COc1ccc(C2=NN(C(C)=O)C(c3ccc([N+](=O)[O-])s3)O2)cc1 (stereo not given)", "Staphylococcus aureus", 1.25],
  ["CCOc1ccc(C2=NN(C(C)=O)C(c3ccc([N+](=O)[O-])s3)O2)cc1 (stereo not given)", "Staphylococcus aureus", 1.25],
  ["CC(=O)N1N=C(c2ccc(C(F)(F)F)cc2)OC1c1ccc([N+](=O)[O-])s1 (stereo not given)", "Staphylococcus aureus", 1.25],
  ["CC(=O)N1N=C(c2ccc(Cl)cc2)OC1c1ccc([N+](=O)[O-])s1 (stereo not given)", "Staphylococcus aureus", 1.25],
  ["CC(=O)N1N=C(c2ccc(I)cc2)OC1c1ccc([N+](=O)[O-])s1 (stereo not given)", "Staphylococcus aureus", 1.25],
  ["CC(=O)N1N=C(c2ccc(C)cc2)OC1c1ccc([N+](=O)[O-])s1 (stereo not given)", "Staphylococcus aureus", 1.25],
  ["CCc1ccc(C2=NN(C(C)=O)C(c3ccc([N+](=O)[O-])s3)O2)cc1 (stereo not given)", "Staphylococcus aureus", 1.25],
  ["CC(=O)N1N=C(c2ccccc2)OC1c1ccc([N+](=O)[O-])s1 (stereo not given)", "Staphylococcus aureus", 1.25],
  ["COC(=O)c1ccc(C2=NN(C(C)=O)C(c3ccc([N+](=O)[O-])s3)O2)cc1 (stereo not given)", "Staphylococcus aureus", 1.25],
  ["CC(=O)N1N=C(c2ccc([N+](=O)[O-])cc2)OC1c1ccc([N+](=O)[O-])s1 (stereo not given)", "Staphylococcus aureus", 2.5]
]}
